# System: UO-31
# protocol summary: NCI tumour cell line growth inhibition, 48 h
Calls of active or inactive are those of the source. No stated cut-off is given here; in the data, active = GI50 up to about 1.1 µM and inactive = higher.
experimental endpoint: GI50

Examples with their reported GI50 follow.
Cc1ccc(/C=C2\Cc3c(C)cc(C)cc3C2=O)c(C(=O)O)c1 ... 50.7 µM (inactive)
CC1(Cl)CC(C)(/C=C/Cl)C(Cl)CC1Cl (stereo unspecified) ... 16.1 µM (inactive)
O=c1s[s+]([O-])c2ccccc12 (stereo unspecified) ... > 100 µM (inactive)

Asked: Any idea what its GI50 is? The compound is COc1ccc(Nc2nc3ccccc3nc2C(=O)O)cc1
Given back: 40 µM (inactive)

Asked: I am curious: what GI50 value has been reported for O=C1C(=O)N(C23CC4CC(CC(C4)C2)C3)C(=S)N1c1ccccc1 ?
Given back: > 100 µM (inactive)

Asked: Which GI50 reading was recorded for the compound CN(C)CN1C(=O)/C(=N\n2c(S)nnc2-c2ccncc2)c2ccccc21 ?
Given back: 29.5 µM (inactive)

* * *

# System: UACC-62
# protocol summary: NCI tumour cell line growth inhibition, 48 h
The source made the active and inactive calls. No stated cut-off is given here; in the data, active = GI50 up to about 1.1 µM and inactive = higher.
Examples of molecules with documented GI50 follow.

Worked set:
O=C(NNC(=O)c1ccccc1O)c1ccc(O)cc1 ... 28.1 µM (inactive)
COc1ccc(CC2C(=O)NC(C)C(=O)N(C)C3C(=O)N(C)C(Cc4ccc(O)c(c4)Oc4ccc(cc4)C3O)C(=O)NC(C)C(=O)NC(C)C(=O)N2C)cc1.COc1ccc(CC2C(=O)NC(C)C(=O)N(C)C3Cc4ccc(cc4)Oc4cc(ccc4O)CC(C(=O)NC(C)C(=O)NC(C)C(=O)N2C)N(C)C3=O)cc1 (configuration not stated) ... 0.00266 µM (active)
COc1ccc2c(c1O)[C@@]13CCCC=C1[C@@H](C2)[N+](C)(C)CC3 ... > 100 µM (inactive)

Asked: Value lookup for GI50; key = COc1cc2c(cc1OC)-c1c3c(cc4c1[C@@H](C2)N(C)CC4)OCO3
Given back: 8.38 µM (inactive)

Asked: # GI50 lookup, item C=C1C(=O)OC2C1CC[C@H](C)C1(O)C(O)CC(=O)[C@@]21C (some centres not stated)
Given back: 12.7 µM (inactive)

Asked: What does the data say about its GI50? Entry: CC1CCCC(C(O)CC2CC(=O)N(c3ccccc3)C(=O)C2)C1=O (configuration not stated)
Given back: > 100 µM (inactive)

Asked: // GI50 lookup, key: Cn1cc(C2(C)CC(C)(C)c3c2n(C)c2ccccc32)c2ccccc21 (configuration not stated)
Given back: > 100 µM (inactive)

* * *

# System: M19-MEL
# protocol summary: NCI tumour cell line growth inhibition, 48 h
The source made the active and inactive calls. Rule as the data show it: active = GI50 up to about 1.1 µM and inactive = higher.
Classes to choose from: y (active), n (inactive)

// known answers, use as guide
CCOc1ccccc1NC(=O)C1=C(C)NC(C)=C(C(=O)Nc2ccccc2OCC)C1c1cccc([N+](=O)[O-])c1 ... n
CN(C)CCNC(=O)c1cccc2cc3cc(O)ccc3nc12 ... n
COc1cc(C2c3cc4c(cc3[C@@H](Oc3ccc(F)cc3)C3COC(=O)[C@H]23)OCO4)cc(OC)c1O (some centres undefined) ... y

Shifting focus to the compound that follows.
Asked: Short answer needed: outcome of this test for CN(C)CCNC(=O)c1cccc2c1nc(-c1cccnc1)c1ccccc12 ?
Given back: n

* * *

# Test system: MDA-N
# protocol summary: NCI tumour cell line growth inhibition, 48 h
The source made the active and inactive calls. Cut-off read from the data, not from the text of the source: active = GI50 up to about 1.1 µM and inactive = higher.
GI50 values for the compounds below.

Example entries begin here.
CCc1nc(Cl)nc(Cl)c1Cl ... 1.77 µM (inactive)
CCOc1cc(C=O)ccc1O ... > 100 µM (inactive)
NC(=O)Cn1c(=O)oc2cc(C(=O)CN3CCOCC3)ccc21 ... > 100 µM (inactive)
Nc1c(OCC(=O)O)ccc2cc(S(=O)(=O)O)ccc12 ... > 100 µM (inactive)
C[C@H]1[C@H]2[C@H]3CC[C@@H]4[C@@]5(C)CC[C@H](O)C(C)(C)[C@@H]5CC[C@@]4(C)[C@]3(C)C[C@H](O)[C@@]2(C)C[C@H]2O[C@]21C ... 18.9 µM (inactive)
COc1ccc(Cc2cc(OC)c(OC)c(OC)c2)cc1O ... < 0.01 µM (active)

Asked: Quick one: GI50 for O=C(O)c1cc2c(cc1CC(Cc1ccc3c(c1)CCC3)C(=O)O)CCC2 (configuration not stated) ?
Given back: > 100 µM (inactive)

Asked: Given the entry Fc1cccc(C2ON=C(c3ccccc3)N2C23CC4CC(CC(C4)C2)C3)c1 (configuration not stated) , report its measured GI50.
Given back: > 10 µM (inactive)

Asked: Item Cc1c(N2C(=O)/C(=C/c3ccc(Cl)cc3)N=C2c2ccccc2)c(=O)n(-c2ccccc2)n1C has what recorded GI50?
Given back: 24.8 µM (inactive)

Asked: What GI50 value was documented for this compound, O=C1O/C(=C\c2ccc(O)cc2)C(c2ccc(O)c(Cl)c2)=C1Br ?
Given back: 8.57 µM (inactive)

* * *

# System: NCI/ADR-RES
# protocol summary: NCI tumour cell line growth inhibition, 48 h
Active and inactive are the calls of the source. No stated cut-off is given here; in the data, active = GI50 up to about 1.1 µM and inactive = higher.
Your answer must be one of the following: true for active, false for inactive

Field: example entries. Status: answers known.
COc1cc(-c2nc3cc(F)ccc3s2)ccc1O ... false
O=C1OC(=O)c2c1cc1cc3c(cc1c2-c1ccc2c(c1)OCO2)OCO3 ... false
Fc1ccc(C(OCCN2CCN(CCCc3ccccc3)CC2)c2ccc(F)cc2)cc1 ... false
COc1ccc(-n2c(-c3ccccc3)cc(-c3cccs3)c2-c2cccs2)cc1 ... false

Asked: What is the recorded call for this molecule in the test? O=C1/C(=C/c2ccc(Cl)cc2)NC(=S)N1CN1CCOCC1
Given back: false

Asked: Outcome? O=C(NNC(=O)c1ccccc1O)c1ccc(O)cc1
Given back: false

Asked: Hey, what did the test say about Cc1c(NC(=O)Nc2c(Cl)cccc2Cl)c(=O)n(-c2ccccc2)n1C ?
Given back: false

Asked: Each molecule tested received a call. Report the one for CSc1ncc2c(n1)-c1ccccc1OC2 .
Given back: false

Asked: Would you mind telling me which call this test gave CCN(CC)CCNC(=O)c1cc2cc(NC(=O)c3cc4cc(NC(=O)c5cc6cc(N)ccc6[nH]5)ccc4[nH]3)ccc2[nH]1 ?
Given back: false

Asked: Status in this test for COc1cc(NC(C)=O)ccc1C(=O)NN1C(=O)C(Cl)C1c1ccco1 (stereo not drawn) ?
Given back: false

Asked: Short answer needed: outcome of this test for O=C1C(Nc2ccccc2)=CC2=NCCc3n[nH]c1c32 ?
Given back: false

Asked: Returns: the outcome recorded for O=C1c2cccc3cccc(c23)C(=O)N1O in this assay.
Given back: false

* * *

# Tested on: HCC 2998
# protocol summary: NCI tumour cell line growth inhibition, 48 h
Activity calls are given as the source filed them. No stated cut-off is given here; in the data, active = GI50 up to about 1.1 µM and inactive = higher.
I would appreciate it if you answered using one of these outcomes: 1 (yes) for active, 0 (no) for inactive

Here's what some known entries look like.
CCOC(=O)c1[nH]c2ccccc2c1C(=O)C[C@H](NC(=O)C(F)(F)F)C(=O)OC ... 0 (no)
COC1O[C@H]2CCN(C(=O)OCc3ccccc3)[C@H]2[C@H]1OCc1ccccc1 (stereo not given in full) ... 0 (no)

Asked: Which outcome was assigned to [O-][S+](CCCl)c1c2ccccc2nc2ccccc12 (stereo not given) in this test?
Given back: 0 (no)

Asked: Please state the recorded outcome for this compound: CCOC(=O)C(=[N+]=[N-])C(=O)C[N+]12CCN(CC1)CC2
Given back: 0 (no)

Asked: Answer briefly: the call reported for COc1ccc(-c2nc(-c3cnccn3)n(Cc3ccccc3)n2)cc1 in this assay.
Given back: 0 (no)

Asked: Could you please tell me the result logged for S=c1c2nc[nH]c2ncn1CCSC1=NC=NC2=NC=NC21 (stereo not given) in this assay?
Given back: 0 (no)

Asked: Test call for this compound, please: CCN(CC)CCO/N=C1\CC[C@H]2[C@@H]3CCc4cc(OC)ccc4[C@H]3CC[C@]12C
Given back: 0 (no)

Asked: Can you look up the reported call for Cc1cc(C)c(S(=O)(=O)N(CCCCCCN)OCCCN)c(C)c1 for me?
Given back: 0 (no)

Asked: // param item: O=C1C(Nc2ccccc2)=CC2=NCCc3n[nH]c1c32 ; yields the recorded call
Given back: 0 (no)

Asked: Could you check what this test reported for COc1ccc(Nc2nc3ccccc3nc2C(=O)O)cc1OC ?
Given back: 0 (no)

Asked: Test call, this compound: N#CC1C(=O)NC2=C(CCOc3c2ccc2ccccc32)C1c1ccc(F)cc1 (stereo not given)
Given back: 0 (no)

Asked: In this assay, the call recorded for CC(=O)C1(O)Cc2c(O)c3c(c(O)c2C(OC2CC(N)C(O)C(C)O2)C1)C(=O)c1ccccc1C3=O (stereo not given) was what?
Given back: 1 (yes)

Asked: Recorded test outcome, item COc1cc(I)c2c3c1OC1C34CCN(C)C(C2)C4=CC(I)C1(OC)OC (stereo not given)
Given back: 0 (no)

Asked: Could you kindly confirm the outcome this assay logged for c1ccc(-c2c(-c3[nH]c4ccccc4c3-c3ccccc3)[nH]c3ccccc23)cc1 ?
Given back: 0 (no)

Asked: For this compound, state the assay outcome: CC1(Cl)CC(C)(/C=C/Cl)C(Cl)CC1Cl (stereo not given)
Given back: 0 (no)
